Reference source for all entries: PubChem BioAssay (NCI)

Tested on: MDA-MB-468 breast
Test: NCI-60 one-dose screen, 48 h
Conditions: 10 µM unless noted
This is part of a sample that, as a whole, favours compounds with a hit. Of some 83,000 tested, about 20% had one in any assay. Active and inactive are the calls of the source. Rule for the calls: active = growth percent below 10; inactive = the rest.
The categories you may choose from are active, inactive

What did the test return for Cc1ccc(C2SCC(=O)N2NC(=O)c2[nH]c3ccc(F)cc3c2-c2ccccc2)cc1 (stereo not given) ? inactive

What did the test return for N#Cc1cccc(C2C3=C(COC3=O)N(CCO)c3cc4c(cc32)CCC4)c1 (stereo not given) ? active

What did the test return for Cc1ncc([N+](=O)[O-])n1CCOc1ccc(C(=O)/C=C/c2ccc(C(F)(F)F)cc2)cc1 ? inactive

What did the test return for CC(=O)Oc1ccc(C2(c3ccc(OC(C)=O)cc3)C(=O)Nc3ccccc32)cc1 ? inactive

What did the test return for COc1cc(-c2nc3cc(Cl)c(Cl)cc3[nH]2)ccc1OCC(=O)N=Nc1c(O)[nH]c2ccccc12 ? active

---

System: MDA-MB-468 breast
Assay: NCI-60 one-dose screen, 48 h
Settings: 10 µM unless noted
This is part of a sample that, as a whole, favours compounds with a hit. Of some 83,000 tested, about 20% had one in any assay. The source made the active and inactive calls. The calls were made as follows: active = growth percent below 10; inactive = the rest.
The categories you may choose from are active, inactive

What did the test return for O=C(Nc1nc2ccccc2s1)c1ccc(F)cc1 ? inactive

What did the test return for CC(O)CCC(C)[N+](=O)[O-] (stereo not given) ? inactive

What did the test return for c1ccc(-c2nc(Nc3ccc(-c4nc5ccccc5[nH]4)cc3)nc(N3CCOCC3)n2)cc1 ? active

What did the test return for CC1CN=C(c2cccc(-c3ccc(-c4ccccc4)o3)c2)N1 (stereo not given) ? active

What did the test return for COc1c([C@@H](CC(C)C)OC(C)=O)ccc2c1C(=O)OCc1cc(C)cc(O)c1O2 ? active

What did the test return for COc1ccc(C(=O)C2C(C#N)C(C#N)C3C=Cc4ccccc4N32)cc1 (stereo not given) ? inactive

What did the test return for CC(=O)c1cc(C(=O)N2c3ccccc3Sc3ccccc32)n2ccc3ccccc3c12 ? inactive

What did the test return for COc1ccccc1NC(=O)N/C(N)=N/c1nc2ccccc2s1 ? inactive

What did the test return for Cc1cc(C)c(C#N)c(Sc2nc(C)c([N+](=O)[O-])c(C)c2C#N)n1 ? inactive

What did the test return for Cc1cc(-c2ccc(N(C)C)cc2)c2sc(=O)[nH]c2n1 ? inactive

What did the test return for CCOC(=O)C(C)(CSSCC(C)(NC(=O)c1ccc2ccccc2c1)C(=O)OCC)NC(=O)c1ccc2ccccc2c1 (stereo not given) ? inactive

What did the test return for COc1ccc(C2CC(c3cccc(OC)c3)=NN2C(=O)c2cc(OC)c(OC)c(OC)c2)cc1 (stereo not given) ? inactive

What did the test return for COc1ccc(-c2nc3sccn3c2-c2nc3c([nH]2)C(=O)c2ccccc2C3=O)cc1 ? inactive

What did the test return for CN(C)c1nc(N)nc(Cn2c(-c3nonc3N)nc3ccccc32)n1 ? inactive

What did the test return for CCCCCN(CCCCC)CCCCCCCCN1CCCc2ccccc21 ? inactive

What did the test return for c1ccc2cc(C[n+]3ccn(CCCCCCCCCCn4cc[n+](Cc5ccc6ccccc6c5)c4)c3)ccc2c1 ? active

What did the test return for O=C(CCCCCCN1CC(=O)N2[C@@H](C3CCCCC3)c3[nH]c4ccccc4c3C[C@H]2C1=O)NO ? inactive

What did the test return for Cn1c(=O)c2nc(SCc3ccccc3)n(C)c2n(C)c1=O ? inactive

What did the test return for NC1=C(Cl)C(=O)c2ccccc2C1=O ? inactive

What did the test return for O=c1[nH]c(O)c(/C=C2/C=Nc3ccccc32)[nH]1 ? inactive

What did the test return for Cc1c(F)cc(C(N)=O)cc1NCC(=O)Nc1ccc([N+](=O)[O-])cc1 ? inactive

What did the test return for Cc1nc2ccccc2c(/C=C/c2ccccc2)c1C(=O)/C=C/c1ccc(Cl)cc1 ? inactive

What did the test return for CCOc1ccc(/C=N/Nc2cc(C)nc3ccc(Cl)cc23)cc1 ? active

What did the test return for O=c1[nH]c(=S)[nH]c(O)c1/C=C1\C=Nc2ccccc21 ? inactive

What did the test return for CCOC(=O)C1=C(C)N=C2Sc3cc(OC(F)(F)F)ccc3N2[C@H]1c1ccccn1 ? inactive

What did the test return for CCOC(=O)c1ccc2c(c1)c1c(C)c3ccncc3c(C)c1n2C ? active

What did the test return for COc1ccc(N=c2nc3sc4cc(Cl)ccc4n3c(N)c2C#N)cc1 ? active

What did the test return for CC(=O)C1CCC2C3CC=C4CC(SC(=N)N)CCC4(C)C3CCC12C (stereo not given) ? active

What did the test return for Cc1cccc(Cl)c1NC(=O)c1ccc2nc(NC(=O)NCCN(C)C)sc2c1 ? inactive

What did the test return for O=C1CN(c2ccccc2)C(=O)C1C(=O)Nc1ccc(Cl)c(Cl)c1 (stereo not given) ? inactive

What did the test return for COc1cc(C(=O)n2nc(NCCCc3ccccc3)c3cc(N)ccc32)cc(OC)c1OC ? inactive

What did the test return for COc1ccc(/C=C/C(=O)c2ccc(NC(=O)CSc3nnc(-c4ccc(Cl)cc4)n3-c3ccccc3)cc2)cc1 ? inactive

What did the test return for N#Cc1ccc(NC(=O)Nc2ccc(Cc3ccc(NC(=O)Nc4ccc(C#N)cc4)cc3)cc2)cc1 ? active

What did the test return for O=[N+]([O-])c1cnc(Sc2ccncn2)s1 ? active

What did the test return for Cc1ccc2c(n1)C(=O)C(Cl)=C(Nc1cc(C(F)(F)F)cc(C(F)(F)F)c1)C2=O ? inactive
